Reported fold-change in binding over parental HEK293 cells by item:
- tgt: T1, human TMEM106B (human, UniProt Q9NUM4 2-274)
- T1 construct: Full-length cDNA transiently transfected into HEK293 cells; also called huTMEM106B
- protocol-summary: flow cytometry, HEK293 cells transiently transfected with human TMEM106B
Number only, in fold; omit the unit.

Use the examples below as a reference point.
{"binder": "TM-64 (antibody, V domains shown, Purified from mouse hybridoma) VH: QVQLQQPGAELVKPGASVKLSCKASGYTFTSYWMHWVKQRPGHGLEWIGNIDPSDSDTHYNQNFRGKATLTVDKFSTTAYMHLSSLTSEDSAVYYCARSRGGTYDYGEAMDYWGQGTSVTVSS VL: DIVMTQAAPSVPVTPGESVSISCRSSKSLLHTNGNTYLFWFLQRPGRSPQLLIYRMSNLASGVPDRFSGSGSGTAFTLRISRVEAEDVGVYYCMQHLEYPFTFGSGTKLEIK", "observed": 12.8}
{"binder": "TM-62 (antibody, V domains shown, Purified from mouse hybridoma) VH: QVQLQQPGTELVRPGSSVKLSCKAAGYTFTRYWMHWVKQRPIQGLEWIGNIDPSDSETQYNPKFKDKATLTVDRSSSTAYMHLSSLTSEDSAVYYCARLTTLDYAMDYWGQGTSVTVSS VL: QIVLTQSPAIMSASPGEKVTISCSASSSVSYMYWYQQKAGSSPKPWIHRTSNLASGVPARFSGSGSGTSYSLTIRSMEAEDAATYYCQQYHSYPPTFGVGTKLELK", "observed": 11.4}
{"binder": "TM-80 (antibody, V domains shown, Purified from mouse hybridoma) VH: QVQLQQPGAELVKPGASVKLSCKASGYTFTTFWMHWVKQRPGQGLEWIGNIDPSDSETHYNQEFKDKATLTVDRSSNTAYMQLSSLTSEDSAVYYCARSSNWDNFDYWGQGTAVTVSS VL: DIVMTQAAPSVPVTPGESVSISCRSSQSLLHVNGHTYLYWFLQRPGQSPQLLIYRMSNLASGVPDRFSGSGSGTVFTLRISRVETEDVGIYYCMQHLQYPFTFGSGTKLEIK", "observed": 9.21}
{"binder": "TM-73 (antibody, V domains shown, Purified from mouse hybridoma) VH: QVQLQQPGAELVKPGASVKLSCKASGYTFTSHWMHWVKHRPGQGLEWIGEIDPSDSYTYYNQKFKGKATLTVDKSSSTVYMQLSSLTSEDSAVYYCARNYHGSGPPFAHWGQGTLVTVSS VL: QIVLTQSPAIMSASPGEKVTLTCSASSGISYIYWYQQRPGSSPRLLIYDTSNLASGVPVRFSGSGSETSYSLTISRLEAEDAATYYCHQWRSYPPTFGGGTKLEIR", "observed": 2.57}

Next item in the queue.
QUERY: What measured fold-change in binding over parental HEK293 cells goes with TM-84 (antibody, V domains shown, Purified from mouse hybridoma) VH: QVQLQQSGAELVKPGASVKMSCKASGYTFTTFPIEWMKQNHGKSLEWIGNFHPYNDDTKYNEKFKGKATLTVEKSSSTVYLELSRLTSDDSAVYYCARYFYGGMDYWGQGTSVTVSS VL: DIQMTQSPASLSVSVGETVTITCRASENIYSSLGWYHQKQGKSPQLLVFAATNLADGVPSRFSGSGSGTQYSLKINSLQSEDFGTYYCQHLWSVPWTFGGGTKLEIK ?
RESULT: 17.1
